assay: gradient 5% acetonitrile 3 min, to 50% in 2 min, to 85% in 15 min, held 3 min, 100 µL/min; conditions: column: Zorbax Extend-C18 2.1 x 50 mm; eluents: water / acetonitrile, 0.1% formic acid
PROPERTY MEASURED: RP-LC retention time (s)

> print(dat)
                            chemical.smiles  units  measured.result
1  CCCNC(=O)C1CCN(c2ccc(SCC(=O)NCc3cccc(C(F)(F)F)c3)nn2)CC1      s              672
2  Cc1ccc(NC(=O)NCCc2cn(CC(C)C)c3ncccc23)cc1C      s              858
3   Cc1c(C2CCN(C(=O)NCc3ccc(F)cc3)CC2)noc1N      s              683
4  CC(C)c1nc(C2CN(C(=O)Nc3ccc(Cl)cc3)C2)n(C)n1      s              704
5  O=C(CSc1nc(N2CCCCC2)nc2ccccc12)Nc1ccc2c(c1)OCO2      s              694
6   CCN1CCn2cc(C(=O)NCc3ccc(C(C)C)cc3)nc2C1      s              644

* * *

test: gradient 5% acetonitrile 3 min, to 50% in 2 min, to 85% in 15 min, held 3 min, 100 µL/min; details: column: Zorbax Extend-C18 2.1 x 50 mm; eluents: water / acetonitrile, 0.1% formic acid
PROPERTY MEASURED: RP-LC retention time (s)

> print(dat)
                            chemical.smiles     property.measured  measured.result
1  Cc1ccccc1Nc1c(-c2ccc(N(C)C)cc2)nc2c(C)cccn12  RP-LC retention time              798
2  O=C(Cn1nc2c(N3CCCCCC3)nccn2c1=O)Nc1ccc(Cl)cc1F  RP-LC retention time              786
3  COCCn1cc(CCNC(=O)Nc2cc(F)c(F)c(F)c2)c2cccnc21  RP-LC retention time              800

* * *

experiment: gradient 5% acetonitrile 3 min, to 50% in 2 min, to 85% in 15 min, held 3 min, 100 µL/min; conditions: column: Zorbax Extend-C18 2.1 x 50 mm; eluents: water / acetonitrile, 0.1% formic acid
PROPERTY MEASURED: RP-LC retention time (s)

Here's what some known entries look like.
> print(dat)
                                   molecule     property.measured  measured.result
1  CC(C)NC(=O)C1CCc2sc(C(=O)N3CCCC3)cc2C1 (configuration not stated)  RP-LC retention time              696
2  COc1ccc(C2Cn3cnc(C(=O)N4CCC(C(=O)NCc5ccco5)CC4)c3CO2)cc1 (configuration not stated)  RP-LC retention time              698
3  CCOC(=O)c1nc(Nc2ccc(S(=O)(=O)Nc3ncccn3)cc2)c2ccccc2n1  RP-LC retention time              688
4   CC(C)c1cccc(Nc2nc3ccncc3n(C(C)C)c2=O)c1  RP-LC retention time              707
5  Cc1nnc2sc(SCc3ccc([N+](=O)[O-])cc3)nn2c1=O  RP-LC retention time              697

[A] CCCc1noc(-c2nnn3c2COC(c2ccc(OC)cc2)C3)n1 (configuration not stated)
[B] c1ccc(-c2noc(-c3ccc(OC4CNC4)cc3)n2)cc1
Lab log: flag the item ( A or B ) with the smaller RP-LC retention time figure. To answer, give the label that identifies your chosen option.
B
(B: 674 s, A: 1010 s)

[I] COc1ccc(CN2CC3(CCN(S(=O)(=O)c4cc(C)ccc4C)CC3)C2=O)cc1
[II] CCOCC(=O)N1CCCn2cc(-c3ccccc3)nc21
Given I and II , report the one with the higher recorded RP-LC retention time. To answer, give the label that identifies your chosen option.
I
(I: 932 s, II: 621 s)
